B1: glmS ribozyme (parent)
chain: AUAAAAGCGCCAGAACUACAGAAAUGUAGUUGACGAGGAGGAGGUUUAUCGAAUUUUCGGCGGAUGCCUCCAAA

Variants of: B1
PROCEDURE_DETAILS: self-cleavage kobs at 2500 uM GlcN6P; higher = faster cleavage; RNA array
CONDITION_CONTEXT: with glucosamine-6-phosphate
Variants at the floor of the assay were thinned out.
Task for the reader: assign each of the following variants its reported self-cleavage kobs at 2500 uM GlcN6P.

Query: self-cleavage kobs at 2500 uM GlcN6P; subject: A15G G29C U31C A39U 5.02e-05 s⁻¹

Query: self-cleavage kobs at 2500 uM GlcN6P; subject: A36G U45A U49C < 1e-05 s⁻¹

Query: self-cleavage kobs at 2500 uM GlcN6P; subject: U54A C61A A64U C68U 8.54e-05 s⁻¹

Query: self-cleavage kobs at 2500 uM GlcN6P; subject: G7U A33C U47A < 1e-05 s⁻¹

Query: self-cleavage kobs at 2500 uM GlcN6P; subject: G51C U54C < 1e-05 s⁻¹

Query: self-cleavage kobs at 2500 uM GlcN6P; subject: C10G C11G G13U U69C C70G < 1e-05 s⁻¹

Query: self-cleavage kobs at 2500 uM GlcN6P; subject: A36C C50U G59A < 1e-05 s⁻¹

Query: self-cleavage kobs at 2500 uM GlcN6P; subject: A6U G29U G32U A42G U47A C71G < 1e-05 s⁻¹

Query: self-cleavage kobs at 2500 uM GlcN6P; subject: U56G U57G G66U < 1e-05 s⁻¹

Query: self-cleavage kobs at 2500 uM GlcN6P; subject: G35C C50U G51C < 1e-05 s⁻¹

Query: self-cleavage kobs at 2500 uM GlcN6P; subject: C34U G41A A52U < 1e-05 s⁻¹

Query: self-cleavage kobs at 2500 uM GlcN6P; subject: U30C G38U A42C < 1e-05 s⁻¹

Query: self-cleavage kobs at 2500 uM GlcN6P; subject: A12U C67U 0.0421 s⁻¹

Query: self-cleavage kobs at 2500 uM GlcN6P; subject: A33G A64C < 1e-05 s⁻¹

Query: self-cleavage kobs at 2500 uM GlcN6P; subject: A6G G35U < 1e-05 s⁻¹

Query: self-cleavage kobs at 2500 uM GlcN6P; subject: A12U A39G U55C 0.0482 s⁻¹

Query: self-cleavage kobs at 2500 uM GlcN6P; subject: G32A U69A 9.73e-05 s⁻¹

Query: self-cleavage kobs at 2500 uM GlcN6P; subject: U30C G43A U46G C67U < 1e-05 s⁻¹

Query: self-cleavage kobs at 2500 uM GlcN6P; subject: C10G G63C G66U < 1e-05 s⁻¹

Query: self-cleavage kobs at 2500 uM GlcN6P; subject: G13C U54A 4.26e-05 s⁻¹

Query: self-cleavage kobs at 2500 uM GlcN6P; subject: U45G U54C C61U < 1e-05 s⁻¹

Query: self-cleavage kobs at 2500 uM GlcN6P; subject: G7C U65G < 1e-05 s⁻¹

Query: self-cleavage kobs at 2500 uM GlcN6P; subject: A36U U45C < 1e-05 s⁻¹

Query: self-cleavage kobs at 2500 uM GlcN6P; subject: A39U A42C U54C U65C < 1e-05 s⁻¹

Query: self-cleavage kobs at 2500 uM GlcN6P; subject: `C67A` 0.0101 s⁻¹

Query: self-cleavage kobs at 2500 uM GlcN6P; subject: A48C G51A C70G < 1e-05 s⁻¹

Query: self-cleavage kobs at 2500 uM GlcN6P; subject: A14C A15G 0.00192 s⁻¹

Query: self-cleavage kobs at 2500 uM GlcN6P; subject: C8U G13A G66U < 1e-05 s⁻¹

Query: self-cleavage kobs at 2500 uM GlcN6P; subject: G43U G59U < 1e-05 s⁻¹

Query: self-cleavage kobs at 2500 uM GlcN6P; subject: A15G G40C 0.0027 s⁻¹

Query: self-cleavage kobs at 2500 uM GlcN6P; subject: A39U G44C 0.0002 s⁻¹

Query: self-cleavage kobs at 2500 uM GlcN6P; subject: G13A A33U A53C < 1e-05 s⁻¹

Query: self-cleavage kobs at 2500 uM GlcN6P; subject: A48U C50U < 1e-05 s⁻¹

Query: self-cleavage kobs at 2500 uM GlcN6P; subject: C68G U69G 2.65e-05 s⁻¹

Query: self-cleavage kobs at 2500 uM GlcN6P; subject: C50U C61U U69A 0.000118 s⁻¹

Query: self-cleavage kobs at 2500 uM GlcN6P; subject: C8U G9A C50G C67U 0.000169 s⁻¹

Query: self-cleavage kobs at 2500 uM GlcN6P; subject: A14G G62U < 1e-05 s⁻¹

Query: self-cleavage kobs at 2500 uM GlcN6P; subject: C50U A52C C58U < 1e-05 s⁻¹

Query: self-cleavage kobs at 2500 uM GlcN6P; subject: A12G U45G G60U < 1e-05 s⁻¹

Query: self-cleavage kobs at 2500 uM GlcN6P; subject: C8U U56C < 1e-05 s⁻¹

Query: self-cleavage kobs at 2500 uM GlcN6P; subject: A12G G29U C58A G59U C67A < 1e-05 s⁻¹

Query: self-cleavage kobs at 2500 uM GlcN6P; subject: G29C U30C G37C C70G 0.000111 s⁻¹

Query: self-cleavage kobs at 2500 uM GlcN6P; subject: G32U A48C G51C < 1e-05 s⁻¹

Query: self-cleavage kobs at 2500 uM GlcN6P; subject: G7C G40A < 1e-05 s⁻¹

Query: self-cleavage kobs at 2500 uM GlcN6P; subject: G9A G41A A53U < 1e-05 s⁻¹

Query: self-cleavage kobs at 2500 uM GlcN6P; subject: A12C A15G G66U C67A 0.000636 s⁻¹
